Target: T1, 4H2504-AA
T1 chain: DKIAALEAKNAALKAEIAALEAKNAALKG
Test: two-hybrid library CCmax;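 further: natural log of median RNA to DNA barcode read ratio; higher means stronger binding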
Details: mean of both orientations
experimental readout: interaction score
The response must contain the number and no unit.

{"binder": "DENAALKAEIAALKAKIAALEAKNAALEG [4H1639-AA]", "endpoint result": -1.77}

Input line: Provide only the value of recorded interaction score for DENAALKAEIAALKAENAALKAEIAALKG [4H1626-AA]
Output line: -1.49

Input line: Provide only the value of recorded interaction score for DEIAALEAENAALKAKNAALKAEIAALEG [4H249-AA]
Output line: -1.35

Input line: Provide only the value of recorded interaction score for DKIAALEAENAALEAKIAALKAENAALEG [4H2219-AA]
Output line: 2.21
